Each entry below carries its reported CLint scaled at 0.8 μM.
- ASSAY_EXPLANATION: in vitro
- MEASUREMENT_CONDITIONS: female, CD9, mouse, microsomes, pH 7.4, CLint’, Table 5, mean ± SD, three replicates

Example results:
> print(dat)
                                   compound              value.type           result
1  CCCCN1CCC(N(Cc2ccccc2)C(=O)Nc2cccc(Cl)c2)CC1 [Compound 63]  CLint scaled at 0.8 μM  ≥ 500 mL/min/kg
2  CCCCN1CCC(N(Cc2ccccc2)C(=O)Nc2cccc(C(F)(F)F)c2F)CC1 [Compound 69]  CLint scaled at 0.8 μM  ≥ 500 mL/min/kg

[ask] Requested field: CLint scaled at 0.8 μM. Item: CCCCN1CCC(N(Cc2ccccc2)C(=O)Nc2ccc(Cl)c(Cl)c2)CC1 [Compound 67]
[reply] 25.6 mL/min/kg

###

- ASSAY_EXPLANATION: in vitro
- MEASUREMENT_CONDITIONS: female, CD9, mouse, microsomes, pH 7.4, CLint’, Table 5, mean ± SD, three replicates
VALUE_TYPE: CLint scaled at 0.8 µM (mL/min/kg)
Quick note: give the figure in mL/min/kg, leave out the unit.

> print(dat)
                                chem.smiles              value.type  measured.number
1  CCCCN1CCC(N(Cc2ccccc2)C(=O)Nc2ccc(F)c(C(F)(F)F)c2)CC1  CLint scaled at 0.8 µM             27.9
2  CCCCN1CCC(N(Cc2ccccc2)C(=O)Nc2ccc(F)c(Cl)c2)CC1  CLint scaled at 0.8 µM             38.7

[ask] Requested field: CLint scaled at 0.8 µM. Item: CCCCN1CCC(N(Cc2ccccc2)C(=O)Nc2ccc(C)c(Cl)c2)CC1
[reply] 189

[ask] Requested field: CLint scaled at 0.8 µM. Item: CCCCN1CCC(N(Cc2ccccc2)C(=O)Nc2cccc(C#N)c2)CC1
[reply] 349

[ask] Requested field: CLint scaled at 0.8 µM. Item: CCCCN1CCC(N(Cc2ccccc2)C(=O)Nc2cccc(C)c2)CC1
[reply] 305

[ask] Requested field: CLint scaled at 0.8 µM. Item: CCCCN1CCC(N(Cc2ccccc2)C(=O)Nc2cc(F)cc(C(F)(F)F)c2)CC1
[reply] 22.3

###

- ASSAY_EXPLANATION: Liver microsomal stability
- MEASUREMENT_CONDITIONS: female, CD9, mouse, microsomes, pH 7.4
VALUE_TYPE: CLint scaled at 0.8 µM (mL/min/kg)
Quick note: give the figure in mL/min/kg, leave out the unit.

[ask] Requested field: CLint scaled at 0.8 µM. Item: CCCC(C)N1CCC(N(Cc2ccccc2)C(=O)Nc2ccc(C#N)c(C(F)(F)F)c2)CC1 (stereo not shown)
[reply] 61.3

###

- ASSAY_EXPLANATION: in vitro
- MEASUREMENT_CONDITIONS: female, CD9, mouse, microsomes, pH 7.4, CLint’, Table 2, mean ± SD, three replicates
VALUE_TYPE: CLint scaled at 0.8 μM

> print(dat)
                                   compound           result
1  CCCC(C)N1CCC(N(Cc2ccccc2)C(=O)Nc2cccc(Cl)c2)CC1 (centres unmarked)  ≥ 500 mL/min/kg

Turning now to a further record.
[ask] Requested field: CLint scaled at 0.8 μM. Item: CCCC(C)N1CCC(N(Cc2ccccc2)C(=O)Nc2cccc(F)c2)CC1 (centres unmarked)
[reply] ≥ 500 mL/min/kg

###

- ASSAY_EXPLANATION: in vitro
- MEASUREMENT_CONDITIONS: female, CD9, mouse, microsomes, pH 7.4, CLint’, Table 3, mean ± SD, three replicates
VALUE_TYPE: CLint scaled at 0.8 µM (L/h/kg)
Quick note: give the figure in L/h/kg, leave out the unit.

Example results:
> print(dat)
                                   compound              value.type  measured.number
1  CCCC(C)N1CCC(N(Cc2ccccc2)C(=O)Nc2cc(Cl)ccc2F)CC1 (centres unmarked)  CLint scaled at 0.8 µM             13.8
2  CCCC(C)N1CCC(N(Cc2ccccc2)C(=O)Nc2cc(F)cc(C(F)(F)F)c2)CC1 (centres unmarked)  CLint scaled at 0.8 µM             17.5
3  CCCC(C)N1CCC(N(Cc2ccccc2)C(=O)Nc2ccc3ncsc3c2)CC1 (centres unmarked)  CLint scaled at 0.8 µM             14.4

[ask] Requested field: CLint scaled at 0.8 µM. Item: CCCC(C)N1CCC(N(Cc2ccccc2)C(=O)Nc2ccc(C)c(F)c2)CC1 (centres unmarked)
[reply] 22.9

[ask] Requested field: CLint scaled at 0.8 µM. Item: CCCC(C)N1CCC(N(Cc2ccccc2)C(=O)Nc2cc(C(F)(F)F)ccc2F)CC1 (centres unmarked)
[reply] 4.01

###

- ASSAY_EXPLANATION: in vitro
- MEASUREMENT_CONDITIONS: female, CD9, mouse, microsomes, pH 7.4, CLint, Table 1, mean ± SD, three replicates
VALUE_TYPE: CLint scaled at 0.8 μM

Example results:
> print(dat)
                                   compound              value.type           result
1  CCCC(C)N1CCC(N(Cc2ccccc2)C(=O)Nc2cccc(C(F)(F)F)c2)CC1 (stereo not drawn)  CLint scaled at 0.8 μM    165 mL/min/kg
2  O=C(Nc1cccc(C(F)(F)F)c1)N(Cc1ccccc1)C1CCN(CC2CC2)CC1  CLint scaled at 0.8 μM  > 500 mL/min/kg

Turning now to a further record.
[ask] Requested field: CLint scaled at 0.8 μM. Item: CCCN1CCC(N(Cc2ccc3c(c2)OCO3)C(=O)Nc2cccc(C(F)(F)F)c2)CC1
[reply] > 500 mL/min/kg

###

- ASSAY_EXPLANATION: Liver microsomal stability
- MEASUREMENT_CONDITIONS: female, CD9, mouse, microsomes, pH 7.4
VALUE_TYPE: CLint scaled at 0.8 μM (mL/min/kg)
Quick note: give the figure in mL/min/kg, leave out the unit.

[ask] Requested field: CLint scaled at 0.8 μM. Item: CCCC(C)N1CCC(N(Cc2ccccc2)C(=O)Nc2ccc(C#N)c(C(F)(F)F)c2)CC1 (stereo not shown) [Compound 34]
[reply] 60

###

- ASSAY_EXPLANATION: in vitro
- MEASUREMENT_CONDITIONS: female, CD9, mouse, microsomes, pH 7.4, CLint, Table 1, mean ± SD, three replicates
Each entry below carries its reported CLint scaled at 0.8 µM.
Quick note: give the figure in mL/min/kg, leave out the unit.

Example results:
> print(dat)
                                   molecule  measured.number
1  CCCN1CCC(N(Cc2cc(F)cc(C(F)(F)F)c2)C(=O)Nc2cccc(C(F)(F)F)c2)CC1 [Compound 10]              199
2  O=C(Nc1cccc(C(F)(F)F)c1)NC1CCN(Cc2ccccc2)CC1 [Compound 2]             91.4
3  CC(C)(C)N1CCC(N(Cc2ccc3c(c2)OCO3)C(=O)Nc2cccc(C(F)(F)F)c2)CC1 [Compound 9]              434
4  CCCCN1CCC(N(Cc2ccc3c(c2)OCO3)C(=O)Nc2cccc(C(F)(F)F)c2)CC1 [Compound 8]              220
5  CCCN1CCC(N(Cc2ccccc2)C(=O)Nc2cccc(C(F)(F)F)c2)CC1 [Compound 4]              318
6  CCCCN1CCC(N(Cc2ccccc2)C(=O)Nc2cccc(C(F)(F)F)c2)CC1 [Compound 6]              361

Turning now to a further record.
[ask] Requested field: CLint scaled at 0.8 µM. Item: CCCN1CCC(N(Cc2ccco2)C(=O)Nc2cccc(C(F)(F)F)c2)CC1 [Compound 3]
[reply] 394

###

- TEST_TARGET: DCN1-UBE2M interaction (Homo sapiens)
- Sequence (Q96GG9 whole entry): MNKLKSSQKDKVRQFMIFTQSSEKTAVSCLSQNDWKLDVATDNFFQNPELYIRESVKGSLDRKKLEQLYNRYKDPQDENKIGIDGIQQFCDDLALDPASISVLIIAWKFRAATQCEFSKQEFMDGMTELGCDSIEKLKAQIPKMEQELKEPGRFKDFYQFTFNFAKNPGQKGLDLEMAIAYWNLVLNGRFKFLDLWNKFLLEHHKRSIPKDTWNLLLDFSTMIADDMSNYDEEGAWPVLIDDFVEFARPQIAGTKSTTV
- ASSAY_EXPLANATION: biochemical
- Type: binding
- MEASUREMENT_CONDITIONS: IC50
VALUE_TYPE: IC50 (nM)
Quick note: give the figure in nM, leave out the unit.

[ask] Requested field: IC50. Item: CCCC(C)N1CCC(N(Cc2ccccc2)C(=O)Nc2ccc(Cl)cc2)CC1 (stereo not shown) [Compound 25]
[reply] 100

###

- TEST_TARGET: DCN1-UBE2M interaction (Homo sapiens)
- ASSAY_EXPLANATION: biochemical
- Type: binding
- MEASUREMENT_CONDITIONS: IC50, rounded values in running text
VALUE_TYPE: IC50

[ask] Requested field: IC50. Item: CCCC(C)N1CCC(N(Cc2ccccc2)C(=O)Nc2ccc(Br)cc2)CC1 (stereo not shown) [Compound 26]
[reply] ~60 nM
